Exercise: for every item that follows, state its recorded POTASSIUM.
# Organism: Rattus norvegicus
# ASSAY_DETAILS: DrugMatrix - Regimen: Daily Repeat
# Format: toxicity, organism-based, Sprague-Dawley
# Parameters: regimen Daily Repeat, gender Male, age 6-8 weeks
# CONDITIONS_USED: in vivo, po, 100 mg/kg, 72 h, tissue Plasma, route oral GAVAGE, dose level Low, time 3 day, vehicle .5 % CMC
Reply with just the number (in MEQ/L).

For the molecule shown here, CC[C@]1(O)CC[C@H]2[C@@H]3CCC4=CCCC[C@@H]4[C@H]3CC[C@@]21C , give the reported POTASSIUM.
6.67

// lookup POTASSIUM for CC=Cc1ccc(O)c(OC)c1
6.23

What POTASSIUM value was documented for this molecule, Nc1nc2c(c(=O)[nH]1)N(C=O)C(CNc1ccc(C(=O)N[C@@H](CCC(=O)O)C(=O)O)cc1)CN2 (some centres undefined) ?
7.04

Need POTASSIUM of C#C[C@]1(O)CC[C@H]2[C@@H]3CCC4=Cc5oncc5C[C@]4(C)[C@H]3CC[C@@]21C , thanks.
6.65

====

# Organism: Rattus norvegicus
# ASSAY_DETAILS: DrugMatrix - Regimen: Daily Repeat
# Type: toxicity, organism-based, Sprague-Dawley
# Design: regimen Daily Repeat, gender Male, age 6-8 weeks
# CONDITIONS_USED: in vivo, po, 0 mg/kg, 120 h, tissue Plasma, route oral GAVAGE, dose level Control, time 5 day, vehicle .5 % CMC
Assign LACTATE DEHYDROGENASE to each entry below.
Express it in u/L; write the number only.

Query (compound): Cc1cnc(C(=O)NCCc2ccc(S(=O)(=O)NC(=O)NC3CCCCC3)cc2)cn1 [GLIPIZIDE] ; field requested: LACTATE DEHYDROGENASE
500.5

So what does the record say about LACTATE DEHYDROGENASE for CC(=O)O[C@]1(C(C)=O)CC[C@H]2[C@@H]3C=C(Cl)C4=CC(=O)[C@@H]5C[C@@H]5[C@]4(C)[C@H]3CC[C@@]21C [CYPROTERONE ACETATE] ?
500.5

Find the recorded LACTATE DEHYDROGENASE belonging to CC(C)(Sc1cc(C(C)(C)C)c(O)c(C(C)(C)C)c1)Sc1cc(C(C)(C)C)c(O)c(C(C)(C)C)c1 [PROBUCOL] and report it.
174

State the recorded LACTATE DEHYDROGENASE for this entry: CC(C(=O)O)c1ccc(-c2ccccc2)c(F)c1 (configuration not stated) [FLURBIPROFEN]
174

Fill in the blank: the reported LACTATE DEHYDROGENASE of CO[C@H]1C[C@@H]2CC[C@@H](C)[C@@](O)(O2)C(=O)C(=O)N2CCCC[C@H]2C(=O)O[C@H]([C@H](C)C[C@@H]2CC[C@@H](O)[C@H](OC)C2)CC(=O)[C@H](C)/C=C(\C)[C@@H](O)[C@@H](OC)C(=O)[C@H](C)C[C@H](C)/C=C/C=C/C=C/1C [SIROLIMUS] is ____.
322

I am curious: what LACTATE DEHYDROGENASE value has been reported for Clc1cc2c(cc1Cl)Oc1cc(Cl)c(Cl)cc1O2 [2,3,7,8-TETRACHLORODIBENZO-P-DIOXIN] ?
89.4

Endpoint output: LACTATE DEHYDROGENASE of C[C@@H](O)[C@H]1C(=O)N2C(C(=O)O)=C(S[C@@H]3CN[C@H](C(=O)N(C)C)C3)[C@H](C)[C@H]12 [MEROPENEM] . Value?
174

====

# Organism: Rattus norvegicus
# ASSAY_DETAILS: DrugMatrix - Regimen: Daily Repeat
# Format: toxicity, organism-based, Sprague-Dawley
# Parameters: regimen Daily Repeat, gender Male, age 6-8 weeks
# CONDITIONS_USED: in vivo, po, 100 mg/kg, 120 h, tissue Blood, route oral GAVAGE, dose level Low, time 5 day, vehicle .5 % CMC
What PLATELET COUNT was measured for each of the following?
Numeric answer only, unit x10E3/uL assumed.

Given the compound CC=Cc1ccc(O)c(OC)c1 , what is its reported PLATELET COUNT?
1402

Value lookup for PLATELET COUNT; key = CC[C@]1(O)CC[C@H]2[C@@H]3CCC4=CCCC[C@@H]4[C@H]3CC[C@@]21C
1290.67

Look at this compound and give its reported PLATELET COUNT. C#C[C@]1(O)CC[C@H]2[C@@H]3CCC4=Cc5oncc5C[C@]4(C)[C@H]3CC[C@@]21C
1135.67

// lookup PLATELET COUNT for Nc1nc2c(c(=O)[nH]1)N(C=O)C(CNc1ccc(C(=O)N[C@@H](CCC(=O)O)C(=O)O)cc1)CN2 (some centres undefined)
1225.67

====

So I've got a bunch of compounds here, and I need their MEAN CORPUSCULAR VOLUME values.
# Organism: Rattus norvegicus
# ASSAY_DETAILS: DrugMatrix - Regimen: Daily Repeat
# Format: toxicity, organism-based, Sprague-Dawley
# Parameters: regimen Daily Repeat, gender Male, age 6-8 weeks
# CONDITIONS_USED: in vivo, po, 0 mg/kg, 120 h, tissue Blood, route oral GAVAGE, dose level Control, time 5 day, vehicle 100 % WATER
Numbers only here, please. The scale is fL.

Consider the compound shown here: CN1C2CCCC1CC(NC(=O)c1nn(C)c3ccccc13)C2 (stereo not drawn) [GRANISETRON] What is its recorded MEAN CORPUSCULAR VOLUME?
63.3

Given the compound CNS(=O)(=O)Cc1ccc2[nH]cc(CCN(C)C)c2c1 , what is its reported MEAN CORPUSCULAR VOLUME?
63.15

Entry under review: CC(C)(C)NC[C@H](O)COc1nsnc1N1CCOCC1 [TIMOLOL] . Reported MEAN CORPUSCULAR VOLUME?
63.3

// query MEAN CORPUSCULAR VOLUME value for entry CCCc1nn(C)c2c(=O)[nH]c(-c3cc(S(=O)(=O)N4CCN(C)CC4)ccc3OCC)nc12
63.05

Bench note: what MEAN CORPUSCULAR VOLUME did CC[C@H]1OC(=O)[C@H](C)[C@@H](O[C@H]2C[C@@](C)(OC)[C@@H](O)[C@H](C)O2)[C@H](C)[C@@H](O[C@@H]2O[C@H](C)C[C@H](N(C)C)[C@H]2O)[C@](C)(O)C[C@@H](C)CN(C)[C@H](C)[C@@H](O)[C@]1(C)O [AZITHROMYCIN] show?
66.97

Reported MEAN CORPUSCULAR VOLUME, compound Nc1ccc(S(=O)(=O)Nc2ncccn2)cc1 [SULFADIAZINE] : ____
60.66

Given CCN[C@@H](C)Cc1cccc(C(F)(F)F)c1 [DEXFENFLURAMINE] , state its recorded MEAN CORPUSCULAR VOLUME.
60.66

So what's the measured MEAN CORPUSCULAR VOLUME for this one? CCCCCCCCCCCCCCCC[n+]1ccccc1.[Br-]
63.23

====

Would you mind telling me the reported ALKALINE PHOSPHATASE of each entry?
# Species on record: Rattus norvegicus
# ASSAY_DETAILS: DrugMatrix - Regimen: Daily Repeat
# Format: toxicity, organism-based, Sprague-Dawley
# Design: regimen Daily Repeat, gender Male, age 6-8 weeks
# CONDITIONS_USED: in vivo, po, 0 mg/kg, 72 h, tissue Plasma, route oral GAVAGE, dose level Control, time 3 day, vehicle .5 % CMC
Could you give me the number in u/L? Just the number is fine.

Look at this compound and give its reported ALKALINE PHOSPHATASE. COc1ccccc1OCC(O)COC(N)=O (stereo unspecified) [METHOCARBAMOL]
346.83

Field request: ALKALINE PHOSPHATASE | item: C[C@@H]1CC[C@H]2[C@@H](C)C(=O)O[C@@H]3O[C@@]4(C)CC[C@@H]1[C@]32OO4 [ARTEMISININ]
346.83

For the compound shown here, C=C(CC)C(=O)c1ccc(OCC(=O)O)c(Cl)c1Cl [ETHACRYNIC ACID] , give the reported ALKALINE PHOSPHATASE.
391.33

Name the reported ALKALINE PHOSPHATASE value associated with the compound CC(=O)O[C@]1(C(C)=O)CC[C@H]2[C@@H]3C=C(Cl)C4=CC(=O)[C@@H]5C[C@@H]5[C@]4(C)[C@H]3CC[C@@]21C [CYPROTERONE ACETATE]
449.5

# query: ALKALINE PHOSPHATASE of entry CO[C@H]1C[C@@H]2CC[C@@H](C)[C@@](O)(O2)C(=O)C(=O)N2CCCC[C@H]2C(=O)O[C@H]([C@H](C)C[C@@H]2CC[C@@H](O)[C@H](OC)C2)CC(=O)[C@H](C)/C=C(\C)[C@@H](O)[C@@H](OC)C(=O)[C@H](C)C[C@H](C)/C=C/C=C/C=C/1C [SIROLIMUS]
398.5

So what's the measured ALKALINE PHOSPHATASE for this one? CCOC(=O)[C@H](CCc1ccccc1)N[C@@H](C)C(=O)N1Cc2ccccc2C[C@H]1C(=O)O
449.5
